All values here come from patent US20220056104A1.

Molecular target: T1, Recombinant DR3-Fc (R&D Systems, cat. #943-D3) (UniProt Q93038 25-199, limits assumed)
T1 construct: dimeric MW~92 kDa; also called DR3 receptor; Fc-DR3; not shown: Fc part of the bought fusion
T1 sequence (looked up): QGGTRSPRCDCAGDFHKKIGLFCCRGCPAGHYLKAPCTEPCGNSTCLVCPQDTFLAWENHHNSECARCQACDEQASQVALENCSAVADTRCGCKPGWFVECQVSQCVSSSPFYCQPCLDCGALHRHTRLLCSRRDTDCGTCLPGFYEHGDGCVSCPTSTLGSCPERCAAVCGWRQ
Assay: ELISA, DR3-Fc immobilized
Procedure: All ELISA-based measurements were collected in triplicate, and error values report the standard error between measurements. […] Plates were washed three times with TBST. […] 100 μl/well POD Chemiluminescence substrate (Roche, cat #: 11582950001) was added immediately prior to reading plate luminescence using a Molecular Devices M5 plate reader with a delay setting of 100 ms. […]
# strict inequality: EC50 < 30 nM yields 1.0, everything else yields 0.0

Please check: EC50 for TL1W37 (His-TEV-TL1A L123E) (ligand, also called TL1W37 (L123E)) HHHHHHENLYFQGLKGQEFAPSHQQVYAPLRADGDKPRAHLTVVRQTPTQHFKNQFPALHWEHEEGLAFTKNRMNYTNKFLLIPESGDYFIYSQVTFRGMTSECSEIRQAGRPNKPDSITVVITKVTDSYPEPTQLLMGTKSVCEVGSNWFQPIYLGAMFSLQEGDKLMVNVSDISLVDYTKEDKTFFGAFLL , strictly under 30 nM or not?
0.0

Lab note: confirm whether the reported EC50 for this binder is below 30 nM, equality not counting. binder: TL1W110 (His-TEV-TL1A S187K) (ligand, also called TL1W110 (S187K)) HHHHHHENLYFQGLKGQEFAPSHQQVYAPLRADGDKPRAHLTVVRQTPTQHFKNQFPALHWEHELGLAFTKNRMNYTNKFLLIPESGDYFIYSQVTFRGMTSECSEIRQAGRPNKPDSITVVITKVTDKYPEPTQLLMGTKSVCEVGSNWFQPIYLGAMFSLQEGDKLMVNVSDISLVDYTKEDKTFFGAFLL
0.0

Lab log: compare recorded EC50 with 30 nM; is it strictly lower for TL1W30 (His-TEV-hTL1A 72-251 N112E) (ligand, also called TL1W30 (N112E)) HHHHHHENLYFQGLKGQEFAPSHQQVYAPLRADGDKPRAHLTVVRQTPTQHFKEQFPALHWEHELGLAFTKNRMNYTNKFLLIPESGDYFIYSQVTFRGMTSECSEIRQAGRPNKPDSITVVITKVTDSYPEPTQLLMGTKSVCEVGSNWFQPIYLGAMFSLQEGDKLMVNVSDISLVDYTKEDKTFFGAFLL ?
1.0

Item TL1W87 (His-TEV-TL1A G124D) (ligand, also called TL1W87 (G124D)) HHHHHHENLYFQGLKGQEFAPSHQQVYAPLRADGDKPRAHLTVVRQTPTQHFKNQFPALHWEHELDLAFTKNRMNYTNKFLLIPESGDYFIYSQVTFRGMTSECSEIRQAGRPNKPDSITVVITKVTDSYPEPTQLLMGTKSVCEVGSNWFQPIYLGAMFSLQEGDKLMVNVSDISLVDYTKEDKTFFGAFLL : EC50 beneath 30 nM, strictly?
1.0

Please determine if TL1W82 (His-TEV-TL1A K111E) (ligand, also called TL1W82 (K111E)) HHHHHHENLYFQGLKGQEFAPSHQQVYAPLRADGDKPRAHLTVVRQTPTQHFENQFPALHWEHELGLAFTKNRMNYTNKFLLIPESGDYFIYSQVTFRGMTSECSEIRQAGRPNKPDSITVVITKVTDSYPEPTQLLMGTKSVCEVGSNWFQPIYLGAMFSLQEGDKLMVNVSDISLVDYTKEDKTFFGAFLL is below 30 nM in terms of EC50.
1.0

Please check: EC50 for TL1W112 (His-TEV-TL1A P189F) (ligand, also called TL1W112 (P189F)) HHHHHHENLYFQGLKGQEFAPSHQQVYAPLRADGDKPRAHLTVVRQTPTQHFKNQFPALHWEHELGLAFTKNRMNYTNKFLLIPESGDYFIYSQVTFRGMTSECSEIRQAGRPNKPDSITVVITKVTDSYFEPTQLLMGTKSVCEVGSNWFQPIYLGAMFSLQEGDKLMVNVSDISLVDYTKEDKTFFGAFLL , strictly under 30 nM or not?
0.0
